Source: patent US20240300939A1

Test system: pAKT (S473) in T47D cells (PI3Kα H1047R mutation)
procedure.text: HTRF pAKT (S473) in T47D cells
Format: cell-based
measurement.parameters: timepoint 1 hour
pIC50: −log10 of the molar value.

| compound | pIC50 |
| --- | --- |
| Cc1c([C@H](NC(=O)Nc2cnc(N3CC[C@H](O)C3)nc2)C(F)(F)F)oc2c(F)cc(F)cc12 | < 5.30 |
| Cc1c([C@H](NC(=O)Nc2cnc(N3CC[C@@H](O)C3)nc2)C(F)(F)F)oc2c(F)cc(F)cc12 | < 5.30 |
| Cc1c([C@H](NC(=O)Nc2cnc(N3CC(C(N)=O)C3)nc2)C(F)(F)F)oc2c(F)cc(F)cc12 | < 5.30 |
| Cc1c(C(NC(=O)Nc2ccc(N)nc2)C(F)(F)F)oc2c(F)cc(F)cc12 (stereo not shown) [Compound 182] | > 6.00 |
